Values from PubChem BioAssay AID1845206

Let's look at some compounds and their measured viability, T/C.
# System: NCI-H1618 multicellular tumor spheroid viability
# RUN_DESCRIPTION: Anticancer human tumor NCI-H1618 cell line growth inhibition;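 note: spheroids exposed to agents for 7 days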
# APPLIED_CONDITIONS: second compound 3.16 µM; first compound 0.949 µM; stronger effect = lower value
RECORDED_METRIC: viability, T/C (%)

compound="Cn1ncnc1[C@H]1c2n[nH]c(=O)c3cc(F)cc(c23)N[C@@H]1c1ccc(F)cc1 + Cn1nnc2c(C(N)=O)ncn2c1=O" assay_system="NCI-H1618 multicellular tumor spheroid viability" recorded_metric="viability, T/C" numeric_readout=1.84
compound="O=C(c1cc(Cc2n[nH]c(=O)c3ccccc23)ccc1F)N1CCN(C(=O)C2CC2)CC1 + Cn1nnc2c(C(N)=O)ncn2c1=O" assay_system="NCI-H1618 multicellular tumor spheroid viability" recorded_metric="viability, T/C" numeric_readout=23.3
compound="CNCc1ccc(-c2cc(-c3nc(-c4ccc(S(=O)(=O)C(C)C)cc4)cnc3N)on2)cc1 + Cn1nnc2c(C(N)=O)ncn2c1=O" assay_system="NCI-H1618 multicellular tumor spheroid viability" recorded_metric="viability, T/C" numeric_readout=1.04
compound="Cc1sc2c(c1C)C(c1ccc(Cl)cc1)=NC(CC(=O)Nc1ccc(O)cc1)c1nnc(C)n1-2 (centres undefined) + Cn1nnc2c(C(N)=O)ncn2c1=O" assay_system="NCI-H1618 multicellular tumor spheroid viability" recorded_metric="viability, T/C" numeric_readout=5.18

====

# Test system: NCI-H1618 multicellular tumor spheroid viability
# RUN_DESCRIPTION: Anticancer human tumor NCI-H1618 cell line growth inhibition;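 note: spheroids exposed to agents for 7 days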
# APPLIED_CONDITIONS: curve of first compound; second compound 94.9 pM
pIC50: −log10 of the molar value.
Hi, to clarify the labels: rule met covers pIC50 from 6 upward, rule not met covers anything below 6.

compound="Cn1ncnc1[C@H]1c2n[nH]c(=O)c3cc(F)cc(c23)N[C@@H]1c1ccc(F)cc1 + COc1cc2c(cc1O)CCNC21CSC2c3c(OC(C)=O)c(C)c4c(c3C(COC1=O)N1C(O)C3Cc5cc(C)c(OC)c(O)c5C(C21)N3C)OCO4" assay_system="NCI-H1618 multicellular tumor spheroid viability" category_label="rule met"
compound="[2H]c1nc(C)nc([2H])c1-c1cc(NC[C@@H](C)c2cccc3c(C(=O)NC)ccnc23)ncn1 + COc1cc2c(cc1O)CCNC21CSC2c3c(OC(C)=O)c(C)c4c(c3C(COC1=O)N1C(O)C3Cc5cc(C)c(OC)c(O)c5C(C21)N3C)OCO4" assay_system="NCI-H1618 multicellular tumor spheroid viability" category_label="rule met"
compound="CC(C)n1c(=O)n(C)c2cnc3cc(F)c(-c4ccc(OCCCN5CCCCC5)nc4)cc3c21 + COc1cc2c(cc1O)CCNC21CSC2c3c(OC(C)=O)c(C)c4c(c3C(COC1=O)N1C(O)C3Cc5cc(C)c(OC)c(O)c5C(C21)N3C)OCO4" assay_system="NCI-H1618 multicellular tumor spheroid viability" category_label="rule met"
compound="Cc1sc2c(c1C)C(c1ccc(Cl)cc1)=NC(CC(=O)Nc1ccc(O)cc1)c1nnc(C)n1-2 (stereo not given) + COc1cc2c(cc1O)CCNC21CSC2c3c(OC(C)=O)c(C)c4c(c3C(COC1=O)N1C(O)C3Cc5cc(C)c(OC)c(O)c5C(C21)N3C)OCO4" assay_system="NCI-H1618 multicellular tumor spheroid viability" category_label="rule met"
compound="Cc1cc(C)c(CNC(=O)c2cc(-c3ccc(CN4CCOCC4)cc3)cc3c2cnn3C2CCCC2)c(=O)[nH]1 + COc1cc2c(cc1O)CCNC21CSC2c3c(OC(C)=O)c(C)c4c(c3C(COC1=O)N1C(O)C3Cc5cc(C)c(OC)c(O)c5C(C21)N3C)OCO4" assay_system="NCI-H1618 multicellular tumor spheroid viability" category_label="rule not met"
compound="O=C(c1cc(Cc2n[nH]c(=O)c3ccccc23)ccc1F)N1CCN(C(=O)C2CC2)CC1 + COc1cc2c(cc1O)CCNC21CSC2c3c(OC(C)=O)c(C)c4c(c3C(COC1=O)N1C(O)C3Cc5cc(C)c(OC)c(O)c5C(C21)N3C)OCO4" assay_system="NCI-H1618 multicellular tumor spheroid viability" category_label="rule not met"
compound="CNCc1ccc(-c2cc(-c3nc(-c4ccc(S(=O)(=O)C(C)C)cc4)cnc3N)on2)cc1 + COc1cc2c(cc1O)CCNC21CSC2c3c(OC(C)=O)c(C)c4c(c3C(COC1=O)N1C(O)C3Cc5cc(C)c(OC)c(O)c5C(C21)N3C)OCO4" assay_system="NCI-H1618 multicellular tumor spheroid viability" category_label="rule met"
compound="COc1cc(C)[nH]c(=O)c1CN1CCc2c(Cl)cc(C(OC)C3COC3)c(Cl)c2C1=O (stereo not given) + COc1cc2c(cc1O)CCNC21CSC2c3c(OC(C)=O)c(C)c4c(c3C(COC1=O)N1C(O)C3Cc5cc(C)c(OC)c(O)c5C(C21)N3C)OCO4" assay_system="NCI-H1618 multicellular tumor spheroid viability" category_label="rule met"
compound="CC1COCCN1c1cc(-c2ccnn2C)c2ccnc(-c3ccn[nH]3)c2n1 (stereo not given) + COc1cc2c(cc1O)CCNC21CSC2c3c(OC(C)=O)c(C)c4c(c3C(COC1=O)N1C(O)C3Cc5cc(C)c(OC)c(O)c5C(C21)N3C)OCO4" assay_system="NCI-H1618 multicellular tumor spheroid viability" category_label="rule met"
